The reported numbers originate from patent US20240141038A1.

Target: T1, human NKp46 (full length, on cells) (human, UniProt O76036 22-304)
T1 construct: also called human NKp46-CHOK1
T1 sequence (O76036 22-304 Q82K): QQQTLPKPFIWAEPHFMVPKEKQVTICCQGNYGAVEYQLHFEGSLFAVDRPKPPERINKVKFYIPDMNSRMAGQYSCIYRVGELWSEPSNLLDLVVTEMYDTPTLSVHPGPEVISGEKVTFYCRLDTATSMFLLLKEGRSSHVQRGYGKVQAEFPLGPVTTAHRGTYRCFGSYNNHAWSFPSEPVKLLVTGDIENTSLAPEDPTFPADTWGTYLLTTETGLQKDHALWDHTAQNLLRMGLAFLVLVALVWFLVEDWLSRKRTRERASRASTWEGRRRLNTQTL
Assay: flow cytometry on human NKp46-CHOK1 cells
Method: The stable human NKp46-CHOK1 and cynomolgus monkey NKp46-CHOK1 cell lines obtained in Example 2 were cultured, the cells were digested with 0.25% pancreatic enzyme EDTA for about 5 minutes, and the digestion was terminated with the complete medium. After centrifugation at 1,500 rpm for 5 minutes, the supernatant was discarded, the precipitated cells were resuspended with PBS containing 1% BSA and counted. […]
property.name: pEC50
As a rule, pEC50 stands for the negative log10 of the concentration, concentration in M.

binder="H5-PC11 humanized antibody (antibody, human IgG1, V domains shown, not shown: constant region of human IgG1) VH: EVQLVESGGGLVQPGGSLRLSCAPSPYSANSFSMAWFRQAPGKEREGIACIQAESGSTNVAPSVKGRFTISQDNSKNTLYLQMNSLRAEDTAVYYCAAFKRNVGGCELRPEHWRFWGQGTLVTVSS" property_name=pEC50 test_result=9.52
binder="H3-PA27 humanized antibody (antibody, human IgG1, V domains shown, not shown: constant region of human IgG1) VH: QVQLVESGGGVVQPGRSLRLSCAASGRTESWYRMGWFRQAPGKGREVVARISGDTNIKYYAGSVKGRFTISRDNSKNTLYLQMSSLRAEDTAVYYCAADRTGATWDYWGQGTLVTVSS" property_name=pEC50 test_result=9.82
binder="H2-PA45 humanized antibody (antibody, V domains shown, not shown: constant region of human IgG1) VH: EVQLVESGGGLVQPGGSLRLSCAASGRTFSRLPMAWFRQAPGKGLEFVAAISWSGGSTYYADSMKGRFTISRDNSKNTAYLQMNSLRAEDTAVYYCAAVGDSAPYSATIVYTDARAYAYWGQGTLVTVSS" property_name=pEC50 test_result=9.56
binder="H3-PA45 humanized antibody (antibody, V domains shown, not shown: constant region of human IgG1) VH: EVQLVESGGGLVQPGGSLRLSCAASGRTFSRLPMAWFRQAPGKGREFVAAISWSGGSTYYADSMKGRFTISRDNSKNTAYLQMNSLRAEDTAVYYCAAVGDSAPYSATIVYTDARAYAYWGQGTLVTVSS" property_name=pEC50 test_result=9.73
binder="H2-PA31 humanized antibody (antibody, human IgG1, V domains shown, not shown: constant region of human IgG1) VH: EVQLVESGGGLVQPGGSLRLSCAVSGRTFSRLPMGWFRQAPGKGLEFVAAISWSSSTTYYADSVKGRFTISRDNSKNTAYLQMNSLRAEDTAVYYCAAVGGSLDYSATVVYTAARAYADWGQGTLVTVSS" property_name=pEC50 test_result=9.69

Using the record for H1-PA45 humanized antibody (antibody, human IgG1, V domains shown, also called hPA45; not shown: constant region of human IgG1) VH: EVQLVESGGGLVQPGGSLRLSCAASGRTFSRLPMAWVRQAPGKGLEWVSAISWSGGSTYYADSMKGRFTISRDNSKNTLYLQMNSLRAEDTAVYYCAAVGDSAPYSATIVYTDARAYAYWGQGTLVTVSS , report its pEC50.
9.27

Using the record for H4-PA31 humanized antibody (antibody, human IgG1, V domains shown, not shown: constant region of human IgG1) VH: EVQLVESGGGLVQPGGSLRLSCAVSGRTFSRLPMGWFRQAPGKDREFVAAISWSSSTTYYADSVKGRFTISRDNSKNTAYLQMNSLRAEDTAVYYCAAVGGSLDYSATVVYTAARAYADWGQGTLVTVSS , report its pEC50.
9.79

Using the record for H2-PA27 humanized antibody (antibody, human IgG1, V domains shown, not shown: constant region of human IgG1) VH: QVQLVESGGGVVQPGRSLRLSCAASGRTESWYRMGWFRQAPGKGLEVVARISGDTNIKYYAGSVKGRFTISRDNSKNTLYLQMSSLRAEDTAVYYCAADRTGATWDYWGQGTLVTVSS , report its pEC50.
9.82
